Source of measurements: patent US12503438B2

target system: UniProt P08581
Sequence (P08581 25-1390): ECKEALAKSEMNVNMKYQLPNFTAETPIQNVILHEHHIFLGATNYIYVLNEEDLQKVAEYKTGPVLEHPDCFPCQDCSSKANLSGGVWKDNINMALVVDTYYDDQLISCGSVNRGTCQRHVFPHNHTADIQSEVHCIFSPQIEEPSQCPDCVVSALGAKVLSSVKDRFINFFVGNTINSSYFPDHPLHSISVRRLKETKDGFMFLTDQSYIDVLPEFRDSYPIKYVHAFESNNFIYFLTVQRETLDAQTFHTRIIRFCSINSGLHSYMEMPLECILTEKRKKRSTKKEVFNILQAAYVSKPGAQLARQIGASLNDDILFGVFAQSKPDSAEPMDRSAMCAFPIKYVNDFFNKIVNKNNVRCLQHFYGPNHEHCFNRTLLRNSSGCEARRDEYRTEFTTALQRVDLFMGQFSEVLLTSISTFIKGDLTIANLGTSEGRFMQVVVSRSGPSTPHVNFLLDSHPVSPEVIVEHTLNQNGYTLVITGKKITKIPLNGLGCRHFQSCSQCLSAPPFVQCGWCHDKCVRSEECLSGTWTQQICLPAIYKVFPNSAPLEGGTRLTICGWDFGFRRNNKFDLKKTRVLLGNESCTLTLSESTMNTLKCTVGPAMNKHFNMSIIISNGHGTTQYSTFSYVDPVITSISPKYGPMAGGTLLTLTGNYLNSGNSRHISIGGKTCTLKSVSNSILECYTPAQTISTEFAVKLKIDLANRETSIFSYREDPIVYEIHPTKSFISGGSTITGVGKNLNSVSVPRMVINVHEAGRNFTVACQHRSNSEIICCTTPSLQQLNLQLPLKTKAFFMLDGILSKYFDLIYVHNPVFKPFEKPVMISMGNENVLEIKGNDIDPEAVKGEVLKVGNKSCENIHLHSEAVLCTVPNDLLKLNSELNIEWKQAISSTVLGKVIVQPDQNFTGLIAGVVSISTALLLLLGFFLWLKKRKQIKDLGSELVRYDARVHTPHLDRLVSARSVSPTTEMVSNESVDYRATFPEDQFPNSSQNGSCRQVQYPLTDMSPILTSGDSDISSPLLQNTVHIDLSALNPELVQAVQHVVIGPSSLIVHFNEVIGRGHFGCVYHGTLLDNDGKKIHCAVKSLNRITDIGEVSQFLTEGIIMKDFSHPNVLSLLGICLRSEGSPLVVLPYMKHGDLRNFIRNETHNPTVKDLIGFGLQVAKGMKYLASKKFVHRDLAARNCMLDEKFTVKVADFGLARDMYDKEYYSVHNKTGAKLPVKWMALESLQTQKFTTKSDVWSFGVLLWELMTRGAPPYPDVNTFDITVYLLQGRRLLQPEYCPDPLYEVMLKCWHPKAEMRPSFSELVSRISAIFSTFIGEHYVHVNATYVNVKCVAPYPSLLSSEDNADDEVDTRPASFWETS
assay text: Met autophosphorylation ELISA in PC-3 cells
Type: cell-based
Parameters: endogenous in cells; host or cells: PC-3 prostate cancer cells (ATCC #CRL-1435)
study conditions: cellular activity, HGF-stimulated, phospho-Met ELISA, read-out: c-Met IC50
observation type: IC50

O=C(Nc1ccc(F)cc1)C1(C(=O)Nc2ccc(Oc3ccnc4cc(-c5cc6ccccn6n5)ccc34)cc2)CC1 [Compound 104]; 100 to 300 nM
O=C(Nc1ccc(F)cc1)C1(C(=O)Nc2ccc(Oc3ccnc4cc(-c5cnn(C6CC6)c5)ccc34)cc2)CC1 [Compound 22]; 10 to 100 nM
C#Cc1ccc2c(Oc3ccc(NC(=O)C4(C(=O)Nc5ccc(F)cc5)CC4)cc3)ccnc2c1 [Compound 64]; 100 to 300 nM

**Query** Please state recorded IC50 (tested on UniProt P08581) of C[Si](C)(C)C#Cc1ccc2c(Oc3ccc(NC(=O)C4(C(=O)Nc5ccc(F)cc5)CC4)cc3)ccnc2c1 [Compound 63]
**Result** > 300 nM

* * *

target system: UniProt P08581
assay text: Met autophosphorylation ELISA in PC-3 cells
Format: cell-based
Design: endogenous in cells; host or cells: PC-3 prostate cancer cells (ATCC #CRL-1435)
study conditions: cellular activity, HGF-stimulated, phospho-Met ELISA, read-out: c-Met IC50
pIC50: −log10 of the molar value.
observation type: pIC50

O=C(Nc1ccc(F)cc1)C1(C(=O)Nc2ccc(Oc3ccnc4cc(-c5cnn(CC(F)(F)F)c5)ccc34)cc2)CC1; 7.00 to 8.00
O=C(Nc1ccc(F)cc1)C1(C(=O)Nc2ccc(Oc3ccnc4cc(C5=CCOC5)ccc34)cc2)CC1; 7.00 to 8.00
O=C(Nc1ccc(F)cc1)C1(C(=O)Nc2ccc(Oc3ccnc4cc(-c5cc6n(n5)CCC6)ccc34)cc2)CC1; 7.00 to 8.00

**Query** Look up pIC50 with UniProt P08581 for this compound: `CN1CCN(c2cc(-c3ccc4c(Oc5ccc(NC(=O)C6(C(=O)Nc7ccc(F)cc7)CC6)cc5)ccnc4c3)ccn2)CC1`
**Result** 6.52 to 7.00

**Query** Record `N#Cc1cncc(-c2ccc3c(Oc4ccc(NC(=O)C5(C(=O)Nc6ccc(F)cc6)CC5)cc4)ccnc3c2)c1` : what is its pIC50 with UniProt P08581?
**Result** 7.00 to 8.00

* * *

target system: KDR (Homo sapiens, UniProt P35968)
Sequence (P35968 790-1356): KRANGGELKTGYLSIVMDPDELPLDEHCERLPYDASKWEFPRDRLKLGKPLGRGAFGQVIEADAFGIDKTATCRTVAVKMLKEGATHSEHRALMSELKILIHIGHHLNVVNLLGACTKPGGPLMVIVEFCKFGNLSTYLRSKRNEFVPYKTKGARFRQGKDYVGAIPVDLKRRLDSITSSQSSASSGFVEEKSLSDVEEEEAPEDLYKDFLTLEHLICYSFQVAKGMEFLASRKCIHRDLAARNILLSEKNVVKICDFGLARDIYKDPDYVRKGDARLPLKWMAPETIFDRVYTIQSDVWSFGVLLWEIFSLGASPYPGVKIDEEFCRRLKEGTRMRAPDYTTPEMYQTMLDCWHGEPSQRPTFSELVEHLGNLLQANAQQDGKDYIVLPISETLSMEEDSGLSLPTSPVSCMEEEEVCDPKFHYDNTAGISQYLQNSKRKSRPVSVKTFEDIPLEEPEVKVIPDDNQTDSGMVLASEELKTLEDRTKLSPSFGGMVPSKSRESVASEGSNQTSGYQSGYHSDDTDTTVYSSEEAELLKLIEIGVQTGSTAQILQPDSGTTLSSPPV
assay text: Human KDR kinase assay (33P-phosphoryl transfer radiometric, KinaseProfiler)
Set-up: Human KDR (residues K790-V1356, 55 nM); purchased Eurofins Pharma Discovery Services UK Limited (KinaseProfiler service)
study conditions: biochemical activity; 10 μM ATP
pIC50: −log10 of the molar value.
// pIC50 lookup, one value per entry

Worked set:
CC1Cc2cc(F)ccc2N1C(=O)C1(C(=O)Nc2ccc(Oc3ccnc4cc(-c5cnn(C)c5)ccc34)cc2)CC1 (stereo not shown) [Compound 80]; 6.00 to 7.00
O=C(Nc1ccc(F)cc1)C1(C(=O)Nc2ccc(Oc3ccnc4cc(-c5ncco5)ccc34)cc2)CC1 [Compound 66]; 7.00 to 8.00
CC(C)(C)n1cc(-c2ccc3c(Oc4ccc(NC(=O)C5(C(=O)Nc6ccc(F)cc6)CC5)cc4)ccnc3c2)cn1 [Compound 23]; 7.00 to 8.00

**Query** Can you share its pIC50? I mean this molecule: O=C(Nc1ccc(F)cc1)C1(C(=O)Nc2ccc(Oc3ccnc4cc(C5CCNC5)ccc34)cc2)CC1 (stereo not shown) [Compound 83]
**Result** 7.00 to 8.00

**Query** Query: pIC50; subject: O=C(Nc1ccc(F)cc1)C1(C(=O)Nc2ccc(Oc3ccnc4cc(-c5cnn(CCO)c5)ccc34)cc2)CC1 [Compound 18]
**Result** ≥ 8.00

**Query** Consider the molecule shown here: O=C(Nc1ccc(F)cc1)C1(C(=O)Nc2ccc(Oc3ccnc4cc(-c5cnn(C6COC6)c5)ccc34)cc2)CC1 [Compound 24] What is its recorded pIC50?
**Result** 7.00 to 8.00

**Query** I would be grateful if you could share the reported pIC50 for Cn1ccc(-c2ccc3c(Oc4ccc(NC(=O)C5(C(=O)Nc6ccc(F)cc6)CC5)cc4)ccnc3c2)n1 [Compound 17] .
**Result** 7.00 to 8.00

**Query** Would you mind telling me what pIC50 value was observed for O=C(Nc1ccc(F)cc1)C1(C(=O)Nc2ccc(Oc3ccnc4cc(-c5cnn(C(F)(F)F)c5)ccc34)cc2)CC1 [Compound 12] ?
**Result** 7.00 to 8.00
